The following molecules each carry a recorded pKi for 5-HT1A receptor (Homo sapiens (Human), UniProt P08908).
Lab note: report pKi as minus log10 of the concentration in molar units, number only.

Example entries begin here.
>  <molecule>
CC(NC(=O)c1cc2cccc(N3CCN(CCc4ccccn4)CC3)c2o1)c1ccnn1C (stereo not shown)

>  <pKi>
7.92

$$$$
>  <molecule>
CC(=O)Nc1ccc(CCN2CCN(c3cccc4cc(C(=O)N(C)C)oc34)CC2)nc1

>  <pKi>
8.43

$$$$
>  <molecule>
O=C(c1cc2cccc(N3CCN(CCc4ccccn4)CC3)c2o1)N1CC(Oc2cccnc2)C1

>  <pKi>
8.72

$$$$

Read the next record carefully.
Just so you know, measured pKi for `O=C(c1cc2cccc(N3CCN(CCc4ccccn4)CC3)c2o1)N1CCC1` came out at 8.85
